Test system: MGC803
test_description: Tumor cell proliferation inhibition (CellTiter-Meiluncell Luminescent Cell Viability Assay), MGC803
test_context: Homo sapiens, MGC-803, 96 h, read-out: inhibitory activity (IC50, nM) against tumor cells proliferation, MGC803
Give measured IC50 for each item. Keep answers brief.

Entry O=C1CCC(N2Cc3cc(CN4CCN(c5cccc6sccc56)CC4)ccc3C2=O)C(=O)N1 (stereo not shown) [GT-04202] — recorded IC50 = 10 to 50 nM

Entry Nc1cccc2c1C(=O)N(C1CCC(=O)NC1=O)C2=O (stereo not shown) [pomalidomide, reference compound] — recorded IC50 = > 10000 nM

Entry Cc1cc(Cl)cc(N2CCN(Cc3ccc4c(c3)CN(C3CCC(=O)NC3=O)C4=O)CC2)n1 (stereo not shown) [GT-04491] — recorded IC50 = 500 to 1000 nM

Entry O=C1CCC(N2Cc3cc(CN4CCC(c5noc6cc(F)ccc56)CC4)ccc3C2=O)C(=O)N1 (stereo not shown) [GT-04254] — recorded IC50 = 100 to 500 nM

Entry O=C1CCC(N2Cc3cc(CN4CCN(c5cccc(Cl)n5)CC4)ccc3C2=O)C(=O)N1 (stereo not shown) [GT-04497] — recorded IC50 = 50 to 100 nM

Entry O=C1CCC(N2Cc3cc(CN4CCN(c5ccc(Cl)cn5)CC4)ccc3C2=O)C(=O)N1 (stereo not shown) [GT-04431] — recorded IC50 = 50 to 100 nM

Entry O=C1CCC(N2Cc3cc(CN4CCN(c5cc(F)cc(F)c5)CC4)ccc3C2=O)C(=O)N1 (stereo not shown) [GT-04496] — recorded IC50 = 100 to 500 nM

Entry O=C1CCC(N2Cc3cc(CN4CCN(c5cccc(F)c5)CC4)ccc3C2=O)C(=O)N1 (stereo not shown) [GT-04452] — recorded IC50 = 100 to 500 nM

Entry O=C1CCC(N2Cc3cc(CN4CCN(c5cccc(Cl)c5Cl)CC4)ccc3C2=O)C(=O)N1 (stereo not shown) [GT-04201] — recorded IC50 = 10 to 50 nM

Entry O=C1CCC(N2Cc3cc(CN4CCN(c5cccc(Br)c5)CC4)ccc3C2=O)C(=O)N1 (stereo not shown) [GT-04467] — recorded IC50 = 10 to 50 nM

###

target: human Cereblon WT GST-tagged protein (Homo sapiens, UniProt Q96SW2)
Construct: purchased CISBIO 64BDCRBNPEH
Sequence (Q96SW2 whole entry): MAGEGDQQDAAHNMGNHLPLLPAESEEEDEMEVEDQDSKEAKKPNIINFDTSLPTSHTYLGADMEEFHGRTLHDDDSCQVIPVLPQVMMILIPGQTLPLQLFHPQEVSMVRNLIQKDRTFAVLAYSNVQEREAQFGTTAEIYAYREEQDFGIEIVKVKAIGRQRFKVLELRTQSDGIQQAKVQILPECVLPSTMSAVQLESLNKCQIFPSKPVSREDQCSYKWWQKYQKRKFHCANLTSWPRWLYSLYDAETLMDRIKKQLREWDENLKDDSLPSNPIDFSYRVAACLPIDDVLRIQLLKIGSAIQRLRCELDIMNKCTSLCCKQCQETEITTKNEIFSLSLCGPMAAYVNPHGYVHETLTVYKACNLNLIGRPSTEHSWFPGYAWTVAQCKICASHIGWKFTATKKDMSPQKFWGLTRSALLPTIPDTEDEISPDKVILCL
test_description: CRBN-binding affinity by HTRF (CEREBLON BINDING kit)
test_context: HTRF inhibitory activity, CEREBLON BINDING kit; read-out: HTRF IC50
Protocol: The CEREBLON BINDING kits (specification: 10,000 tests; product number: Catalog # 64BDCRBNPEH; CISBIO company) was used to determine the CRBN binding ability of the compounds to be tested through a HTRF method (homogeneous time-resolved fluorescence). The specific methods are as follows: • 1. […] Specifically, diluent #9 (1X) solution was used as the diluent, and multiple concentration gradients were set. […] Then, 2.5 µL of human Cereblon WT GST-tagged protein solution was added to each well. […]
readout: IC50

Entry O=C1CCC(N2Cc3cc(CN4CCC(c5ccoc5)CC4)ccc3C2=O)C(=O)N1 (centres unmarked) — recorded IC50 = 1 to 1.5 µM

Entry Cc1ccsc1C1=CCN(Cc2ccc3c(c2)CN(C2CCC(=O)NC2=O)C3=O)CC1 (centres unmarked) — recorded IC50 = < 0.5 µM

Entry O=C1CCC(N2C(=O)c3ccc(CN4CCC(=C5CCOc6cc(F)ccc65)CC4)cc3C2=O)C(=O)N1 (centres unmarked) — recorded IC50 = 1 to 1.5 µM

Entry CC(C)c1cc2c(N3CCN(Cc4ccc5c(c4)C(=O)N(C4CCC(=O)NC4=O)C5=O)CC3)ncnc2s1 (centres unmarked) — recorded IC50 = 1.5 to 1.9 µM

Entry O=C1CCC(N2Cc3cc(CN4CCC(c5ccc(Cl)cc5)CC4)ccc3C2=O)C(=O)N1 (centres unmarked) — recorded IC50 = 0.5 to 1 µM

Entry O=C1CCC(N2Cc3cc(CN4CC5CCC(C4)N5c4cccc(Cl)c4Cl)ccc3C2=O)C(=O)N1 (centres unmarked) — recorded IC50 = 0.5 to 1 µM

Entry O=C1CCC(N2Cc3cc(CN4CCN(c5ncccc5C(F)(F)F)CC4)ccc3C2=O)C(=O)N1 (centres unmarked) — recorded IC50 = 0.5 to 1 µM

Entry O=C1CCC(N2Cc3cc(CN4CCN(c5ccnc(Br)c5F)CC4)ccc3C2=O)C(=O)N1 (centres unmarked) — recorded IC50 = < 0.5 µM

Entry O=C1CCC(N2Cc3cc(CN4CCN(c5cccc(Cl)c5Cl)CC4)ccc3C2=O)C(=O)N1 (centres unmarked) — recorded IC50 = 1 to 1.5 µM

Entry O=C1CCC(N2Cc3cc(CN4CCc5sccc5C4)ccc3C2=O)C(=O)N1 (centres unmarked) — recorded IC50 = 0.5 to 1 µM

Entry O=C1CCC(N2Cc3cc(CN4CCC(N5CCCc6cc(F)ccc65)CC4)ccc3C2=O)C(=O)N1 (centres unmarked) — recorded IC50 = 0.5 to 1 µM

Entry O=C1CCC(N2Cc3cc(CN4CCN(c5ccsc5)CC4)ccc3C2=O)C(=O)N1 (centres unmarked) — recorded IC50 = 0.5 to 1 µM

Entry O=C1CCC(N2Cc3cc(CN4CCN(c5ccnc(Cl)c5Br)CC4)ccc3C2=O)C(=O)N1 (centres unmarked) — recorded IC50 = < 0.5 µM

Entry O=C1CCC(N2Cc3cc(CN4CCN(c5cc(Cl)nnc5Cl)CC4)ccc3C2=O)C(=O)N1 (centres unmarked) — recorded IC50 = 0.5 to 1 µM

###

Give measured IC50 for each item. Keep answers brief.
target: human Cereblon WT GST-tagged protein (Homo sapiens, UniProt Q96SW2)
Construct: purchased CISBIO 64BDCRBNPEH
test_description: CRBN-binding affinity by HTRF (CEREBLON BINDING kit)
test_context: HTRF inhibitory activity, CEREBLON BINDING kit; read-out: HTRF IC50

Entry O=C1CCC(N2Cc3cc(CN4CCN(c5ccc(Cl)c(Cl)c5)CC4)ccc3C2=O)C(=O)N1 (stereo not drawn) [GT-04437] — recorded IC50 = 500 to 1000 nM

Entry O=C1CCC(N2Cc3cc(CN4CC=C(c5cccc(Cl)c5Cl)CC4)ccc3C2=O)C(=O)N1 (stereo not drawn) [GT-04550] — recorded IC50 = < 500 nM

Entry Cc1ccc(Sc2ccccc2N2CCN(Cc3ccc4c(c3)CN(C3CCC(=O)NC3=O)C4=O)CC2)c(C)c1 (stereo not drawn) [GT-04203] — recorded IC50 = 500 to 1000 nM

###

target: human Cereblon WT GST-tagged protein (Homo sapiens)
Construct: purchased CISBIO 64BDCRBNPEH
test_description: CRBN-binding affinity by HTRF (CEREBLON BINDING kit)
test_context: HTRF inhibitory activity, CEREBLON BINDING kit; read-out: HTRF IC50
pIC50: −log10 of the molar value.
Give measured pIC50 for each item. Keep answers brief.

Entry Cc1nc(C2CCN(Cc3ccc4c(c3)CN(C3CCC(=O)NC3=O)C4=O)CC2)c2c3c(sc2n1)CCCC3 (stereo not drawn) — recorded pIC50 = > 6.30

Entry Cc1nc(C2=CCN(Cc3ccc4c(c3)C(=O)N(C3CCC(=O)NC3=O)C4=O)CC2)c2c3c(sc2n1)CCC3 (stereo not drawn) — recorded pIC50 = 5.72 to 5.82

Entry O=C1CCC(N2Cc3cc(CN4CCN(c5ccccc5)CC4)ccc3C2=O)C(=O)N1 (stereo not drawn) — recorded pIC50 = 6.00 to 6.30

Entry O=C1CCC(N2Cc3cc(CN4CCC(N5CCOc6cc(F)ccc65)CC4)ccc3C2=O)C(=O)N1 (stereo not drawn) — recorded pIC50 = > 6.30

Entry O=C1CCC(N2C(=O)c3ccc(CN4CCN(c5nc(N6CCOCC6)c6sccc6n5)CC4)cc3C2=O)C(=O)N1 (stereo not drawn) — recorded pIC50 = 5.82 to 6.00

Entry O=C1CCC(N2Cc3cc(CN4CCC(c5cccc(F)c5F)CC4)ccc3C2=O)C(=O)N1 (stereo not drawn) — recorded pIC50 = 5.82 to 6.00

Entry Cc1ccc(C2CCN(Cc3ccc4c(c3)CN(C3CCC(=O)NC3=O)C4=O)CC2)s1 (stereo not drawn) — recorded pIC50 = 5.82 to 6.00

Entry O=C1CCC(N2Cc3cc(CN4CC=C(c5cccc6c(F)cccc56)CC4)ccc3C2=O)C(=O)N1 (stereo not drawn) — recorded pIC50 = > 6.30

Entry O=C1CCC(N2Cc3cc(CN4CCN(c5cccnn5)CC4)ccc3C2=O)C(=O)N1 (stereo not drawn) — recorded pIC50 = 6.00 to 6.30

Entry O=C1CCC(N2Cc3cc(CN4CCN(c5ncc(Cl)cc5Cl)CC4)ccc3C2=O)C(=O)N1 (stereo not drawn) — recorded pIC50 = 6.00 to 6.30

Entry O=C1CCC(N2Cc3cc(CN4CCC(c5ncnc6sc7c(c56)CCC7)CC4)ccc3C2=O)C(=O)N1 (stereo not drawn) — recorded pIC50 = > 6.30

Entry O=C1CCC(N2Cc3cc(CN4CCC(c5cccs5)CC4)ccc3C2=O)C(=O)N1 (stereo not drawn) — recorded pIC50 = 5.82 to 6.00

meta.source: patent EP4745137A1
